System: NCI-H460;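 further: cell viability assay scoring growth inhibition of human NCI-H460 cells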
assay protocol: cells
Assay type: functional, cell-based
conditions used: Homo sapiens
Description: SANGER: Inhibition of human NCI-H460 cell growth in a cell viability assay.
pIC50: −log10 of the molar value.
readout label: pIC50

CC(C)=CC[C@@H](O)C1=CC(=O)c2c(O)ccc(O)c2C1=O [SHIKONIN] : 5.89
CCNC(=O)c1noc(-c2cc(C(C)C)c(O)cc2O)c1-c1ccc(CN2CCOCC2)cc1 [LUMINESPIB] : 7.87
Fc1cc(-c2cc[nH]/c(=N/c3ccc(-n4cnc(N5CCOCC5)n4)cc3)n2)cc(N2CCOCC2)c1 : 6.47

---

Test system: NCI-H2141;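 further: growth inhibition of human NCI-H2141 cells, read out with a cell viability assay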
assay protocol: cells
Format: functional, cell-based
conditions used: Homo sapiens
Description: SANGER: Inhibition of human NCI-H2141 cell growth in a cell viability assay.
pIC50: −log10 of the molar value.
readout label: pIC50

Cc1[nH]c(/C=C2\C(=O)Nc3ccc(S(=O)(=O)Cc4c(Cl)cccc4Cl)cc32)c(C)c1C(=O)N1CCC[C@@H]1CN1CCCC1 : < 5.70
O=c1[nH]c2ccccc2n1C1CCN(Cc2ccc(-c3nc4cc5[nH]cnc5cc4nc3-c3ccccc3)cc2)CC1 : < 5.59
COc1cc(C)c(Sc2cnc(NC(=O)c3ccc(CNC(C)C(C)(C)C)cc3)s2)cc1C(=O)N1CCN(C(C)=O)CC1 (stereo unspecified) : < 4.99
Cc1nc(Nc2ncc(C(=O)Nc3c(C)cccc3Cl)s2)cc(N2CCN(CCO)CC2)n1 : < 5.89
CC(O)(CS(=O)(=O)c1ccc(F)cc1)C(=O)Nc1ccc(C#N)c(C(F)(F)F)c1 (stereo unspecified) [BICALUTAMIDE] : < 5.99
Cc1n[nH]c2ccc(-c3cncc(OC[C@@H](N)Cc4c[nH]c5ccccc45)c3)cc12 : 6.27

---

Tested on: Caov-4
assay protocol: cells
Format: functional, cell-based
conditions used: Homo sapiens
Description: SANGER: Inhibition of human Caov-4 cell growth in a cell viability assay.
pIC50: −log10 of the molar value.
readout label: pIC50

CC(C)=CC[C@@H](O)C1=CC(=O)c2c(O)ccc(O)c2C1=O [SHIKONIN] : 5.72

---

// reported IC50 per item
Tested on: UACC-62;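 further: growth inhibition of human UACC-62 cells, read out by a cell viability assay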
assay protocol: cells
Format: functional, cell-based
conditions used: Homo sapiens
Description: SANGER: Inhibition of human UACC-62 cell growth in a cell viability assay.
readout label: IC50

CC(=O)c1c(C)c2cnc(Nc3ccc(N4CCNCC4)cn3)nc2n(C2CCCC2)c1=O : > 4 µM
NC(=O)c1ncn([C@@H]2O[C@H](COP(=O)(O)O)[C@@H](O)[C@H]2O)c1N : > 2000 µM
CC[C@@]1(O)C(=O)OCc2c1cc1n(c2=O)Cc2cc3ccccc3nc2-1 : 0.031 µM
Cn1cc(/C=C2\C(=O)Nc3cccnc32)c2ccccc21 : > 2 µM
O=c1[nH]c2ccccc2n1C1CCN(Cc2ccc(-c3nc4cc5[nH]cnc5cc4nc3-c3ccccc3)cc2)CC1 : > 2.56 µM

---

Test system: D-263MG
assay protocol: cells
Format: functional, cell-based
conditions used: Homo sapiens
Description: SANGER: Inhibition of human D-263MG cell growth in a cell viability assay.
pIC50: −log10 of the molar value.
readout label: pIC50

Cn1c(=O)n(-c2ccc(C(C)(C)C#N)cc2)c2c3cc(-c4cnc5ccccc5c4)ccc3ncc21 : 7.53
CO[C@@]12[C@H](COC(N)=O)C3=C(C(=O)C(C)=C(N)C3=O)N1C[C@@H]1N[C@@H]12 : 6.27
CCn1c(-c2nonc2N)nc2cnc(Oc3cccc(NC(=O)c4ccc(OCCN5CCOCC5)cc4)c3)cc21 [GSK-269962A] : 7.07
C/C=C(/C)C(=O)O[C@H]1C(C)=C2[C@H]([C@@H]1OC(=O)CCCCCCC)[C@@](C)(OC(C)=O)C[C@H](OC(=O)CCC)[C@@]1(O)[C@H]2OC(=O)[C@@]1(C)O : 7.43
CCNC(=O)c1noc(-c2cc(C(C)C)c(O)cc2O)c1-c1ccc(CN2CCOCC2)cc1 : 7.25

Where do these numbers come from? They come from ChEMBL document CHEMBL1201861.
